Cited source for all entries: PubChem BioAssay (NCI)

assayRemarks: NCI Yeast Anticancer Drug Screen. Data for the rad50 strain (AID 155);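 also: 0% = growth of vehicle-only cultures of the same strain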
appliedConditions: S. cerevisiae rad50 strain growth inhibition; at 100.0 µM; active compounds read high
About 79,000 compounds went through this panel and 15% of them were active in at least one assay; those are over-represented in the sample as a whole.
endpointName: growth inhibition (%)
Please reply with the bare figure in % and do not write the unit itself.

Here are 3 compounds together with their reported answers.
compound	outputUnit	growth inhibition
O=C1CSC(=S)N1Cc1ccc(Cl)cc1Cl	%	98
CC(=O)OCC1OC(O[C@H]2C=C[C@@H](C(=O)OCc3ccccc3)n3c(=O)n(-c4ccccc4)c(=O)n32)C(OC(C)=O)C(OC(C)=O)C1OC(C)=O (some centres not stated)	%	67
NNC(=S)Nc1cccc(Cl)c1	%	92

Supply reported growth inhibition belonging to this compound: `COc1cc(N(C)C)ccc1/C=C\c1ccnc2ccccc12`
1

Answer with reported growth inhibition of OC(CN1CCCCC1)c1cc(Cl)c(Cl)c(Cl)c1 (configuration not stated)
36

Specify measured growth inhibition for `CCN(CC)CCNC(=O)c1nn(-c2ccc(Cl)cc2)c2c1CCc1cc(OC)ccc1-2` .
95

Specify measured growth inhibition for `CC(=O)N1C(=O)/C(=C\C(=O)c2ccc(Cl)cc2)c2ccccc21` .
92

Note growth inhibition for the compound shown: `S=P(N1CC1)(N1CC1)N1CC1`
23

Consider the compound `Clc1cc(Cc2ccc(N=C/C=C/c3ccccc3)c(Cl)c2)ccc1N=C/C=C\c1ccccc1` and give its recorded growth inhibition.
32

In one line, give reported growth inhibition of the entry `O=C(O)c1[nH]c(=O)c2ccccc2c1Nc1ccccc1` .
0

Please give measured growth inhibition of the following entry: CC(=O)C1=C(O)C2(C)c3c(O)c(C)c(O)c(C(C)=O)c3OC2(Sc2ccccc2)CC1=O (configuration not stated)
83
